- Subject of test: β-secretase (BACE) (Homo sapiens)
- Construct: purchased Panvera
- Protocol notes: In Vitro BACE FS1 % Inhibition Assay (Example 10)
- Assay type: biochemical
- Measurement parameters: 1 μM compound; FS1 substrate; values below about 25% (including negative) within noise
Quantity: % Inhibition (Example 10) @ 1 μM (%)
Write it as a number; the unit % goes unstated.

Take a look at these entries with their results.
CCCCNC(=O)CCc1cc2cc(Oc3ccccc3)ccc2nc1N: 0.8
COC(=O)[C@H]1CC[C@H](NC(=O)CCC(c2cc3cc(Oc4ccccc4)ccc3nc2N)C2CCCCC2)CC1 (stereo partly shown): −11
CN(C(=O)CCCc1cc2cc(Oc3ccccc3)ccc2nc1N)C1CCCCC1: 26

Please turn your attention to the following entry.
Readout % Inhibition (Example 10) @ 1 μM for CCN(CC)CCNC(=O)CCc1cc2cc(Oc3ccccc3)ccc2nc1N , test system β-secretase (BACE) (Homo sapiens), was −13

----------
# reported inhibition at 1 µM; entries follow
- Subject of test: human BACE-1 (Homo sapiens, UniProt P56817)
- Construct: purchased CEREP (contract assay) 761-B
- Sequence (P56817 46-501): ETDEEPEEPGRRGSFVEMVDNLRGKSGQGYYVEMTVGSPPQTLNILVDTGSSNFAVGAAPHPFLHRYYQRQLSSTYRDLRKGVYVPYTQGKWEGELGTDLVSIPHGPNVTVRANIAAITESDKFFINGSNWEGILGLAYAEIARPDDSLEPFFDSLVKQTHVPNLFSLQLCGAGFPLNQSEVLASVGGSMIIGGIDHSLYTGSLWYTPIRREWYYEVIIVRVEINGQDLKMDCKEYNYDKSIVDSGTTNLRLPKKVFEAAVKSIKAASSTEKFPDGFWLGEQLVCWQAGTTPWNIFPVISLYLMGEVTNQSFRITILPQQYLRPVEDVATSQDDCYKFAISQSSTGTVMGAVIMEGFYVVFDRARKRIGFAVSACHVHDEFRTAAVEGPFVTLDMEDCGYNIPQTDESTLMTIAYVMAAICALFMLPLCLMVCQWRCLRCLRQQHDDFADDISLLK
- Protocol notes: In Vitro BACE Assay run by CEREP (Example 14)
- Format: biochemical
- Measurement parameters: 1 μM compound; recombinant enzyme, 60 min at 37° C., pH 4.5
- Excerpt: This assay was run by CEREP (Catalog Ref. 761-B, Referred to SOP No. 1C131; ERMOLIEFF, J., LOY, J. A., KOELSCH, G. and TANG, J., Proteolytic activation of recombinant pro-memapsin 2 (pro-BACE) studied with new fluorogenic substrates, Biochemistry, (2000) Vol. 39, p. 12450). […]
Write it as a number; the unit % goes unstated.

Take a look at these entries with their results.
Nc1nc2ccc(Oc3ccccc3)cc2cc1C(CCC(=O)N(Cc1c[nH]cn1)C1CCCCC1)C1CCOCC1 (centres unmarked): 90
Nc1nc2ccc(Oc3ccccc3)cc2cc1C(CCC(=O)N(c1ncc[nH]1)C1CCCCC1)C1CCCCC1 (centres unmarked): 79
Cn1ccnc1CN(CC(C)(C)C)C(=O)CCC(c1cc2cc(Oc3ccccc3)ccc2nc1N)C1CCCCC1 (centres unmarked): 88
CC(C)(C)OC[C@@H](NC(=O)CC[C@H](c1cc2cc(Oc3ccccc3)ccc2nc1N)C1CCCCC1)C(=O)N1CCOCC1: 46
Nc1nc2ccc(Oc3ccccc3)cc2cc1C(CCC(=O)N(CCO)CC1CC1)C1CCOCC1 (centres unmarked): 41

Readout inhibition at 1 µM for Nc1nc2ccc(Oc3ccccc3)cc2cc1C(CCC(=O)N(CCN1CCOCC1)C1CCCCC1)C1CCOCC1 (centres unmarked) , test system human BACE-1 (Homo sapiens, UniProt P56817), was 69

Readout inhibition at 1 µM for Nc1nc2ccc(Oc3ccccc3)cc2cc1C(CCC(=O)N(Cc1ccccn1)C1CCCCC1)C1CCOCC1 (centres unmarked) , test system human BACE-1 (Homo sapiens, UniProt P56817), was 83

Readout inhibition at 1 µM for CC(C)(C)CN(Cc1ccccn1)C(=O)CCC(c1cc2cc(Oc3ccccc3)ccc2nc1N)C1CCOCC1 (centres unmarked) , test system human BACE-1 (Homo sapiens, UniProt P56817), was 69

Readout inhibition at 1 µM for CN(C(=O)CCC(c1cc2cc(Oc3ccccc3)ccc2nc1N)C1CCOCC1)C1CCCCC1 (centres unmarked) , test system human BACE-1 (Homo sapiens, UniProt P56817), was 78

Readout inhibition at 1 µM for Nc1nc2ccc(Oc3ccccc3)cc2cc1C(CCC(=O)N(Cc1ncc[nH]1)C1CCCCC1)C1CCOCC1 (centres unmarked) , test system human BACE-1 (Homo sapiens, UniProt P56817), was 91

Readout inhibition at 1 µM for Cn1ccnc1CN(C(=O)CCC(c1cc2cc(Oc3ccccc3)ccc2nc1N)C1CCOCC1)C1CCCCC1 (centres unmarked) , test system human BACE-1 (Homo sapiens, UniProt P56817), was 85

Readout inhibition at 1 µM for CN(C(=O)CCC(c1cc2cc(Oc3ccccc3)ccc2nc1N)C1CCCCC1)C1CCCCC1 (centres unmarked) , test system human BACE-1 (Homo sapiens, UniProt P56817), was 46

Readout inhibition at 1 µM for Nc1nc2ccc(Oc3ccccc3)cc2cc1C(CCC(=O)NCC1CC1)C1CCOCC1 (centres unmarked) , test system human BACE-1 (Homo sapiens, UniProt P56817), was 59

Readout inhibition at 1 µM for Nc1nc2ccc(Oc3ccccc3)cc2cc1C(CCC(=O)N(CC1CC1)C1CCCCC1)C1CCOCC1 (centres unmarked) , test system human BACE-1 (Homo sapiens, UniProt P56817), was 90

----------
# reported inhibition at 3 µM; entries follow
- Subject of test: β-secretase (BACE) (Homo sapiens, UniProt P56817)
- Construct: purchased Panvera
- Protocol notes: In Vitro BACE FS1 % Inhibition Assay (Example 10)
- Type: biochemical
- Measurement parameters: 3 μM compound; FS1 substrate; values below about 25% (including negative) within noise
Write it as a number; the unit % goes unstated.

// inhibition at 3 µM lookup, compound = CN(C(=O)CCC(c1cc2cc(Oc3ccccc3)ccc2nc1N)C1CCCCC1)C1CCCCC1 (centres unmarked) [compound 16] , result: 78

// inhibition at 3 µM lookup, compound = CC1CCCC(NC(=O)CCc2cc3cc(Oc4ccccc4)ccc3nc2N)C1 (centres unmarked) [compound 3] , result: 115

// inhibition at 3 µM lookup, compound = CN(C(=O)CCC(c1cc2cc(Oc3ccccc3)ccc2nc1N)C1CCOCC1)C1CCCCC1 (centres unmarked) [compound 23] , result: 127

// inhibition at 3 µM lookup, compound = CC(C)=CCCC(C)=CCNC(=O)CCc1cc2cc(Oc3ccccc3)ccc2nc1N [compound 13] , result: 88

// inhibition at 3 µM lookup, compound = CN(C(=O)CC[C@H](c1cc2cc(Oc3ccccc3)ccc2nc1N)C1CCOCC1)C1CCCCC1 [compound 25] , result: 126

----------
- Subject of test: human BACE-1 (Homo sapiens, UniProt P56817)
- Construct: purchased CEREP (contract assay) 761-B
- Protocol notes: In Vitro BACE Assay run by CEREP (Example 14)
- Format: biochemical
- Measurement parameters: 0.3 μM compound; recombinant enzyme, 60 min at 37° C., pH 4.5
Quantity: inhibition at 0.3 µM (%)
Write it as a number; the unit % goes unstated.

Take a look at these entries with their results.
CN(C(=O)CCC(c1cc2cc(Oc3ccccc3)ccc2nc1N)C1CCCCC1)C1CCCCC1 (stereo not drawn): 15
Nc1nc2ccc(Oc3ccccc3)cc2cc1C(CCC(=O)NCC1CC1)C1CCOCC1 (stereo not drawn): 49
Cn1ccnc1CN(C(=O)CCC(c1cc2cc(Oc3ccccc3)ccc2nc1N)C1CCCCC1)C1CCCCC1 (stereo not drawn): 16
Nc1nc2ccc(Oc3ccccc3)cc2cc1C(CCC(=O)NCc1nnnn1Cc1ccccc1)C1CCOCC1 (stereo not drawn): 32

// inhibition at 0.3 µM lookup, molecule = Nc1nc2ccc(Oc3ccccc3)cc2cc1C(CCC(=O)N(c1ncc[nH]1)C1CCCCC1)C1CCCCC1 (stereo not drawn) , result: 11

// inhibition at 0.3 µM lookup, molecule = Nc1nc2ccc(Oc3ccccc3)cc2cc1C(CCC(=O)N(CCN1CCCC1)C1CCCCC1)C1CCCCC1 (stereo not drawn) , result: 27

----------
- Subject of test: UniProt:P56817
- Protocol notes: In Vitro BACE Assay run by CEREP (Example 14)
- Measurement parameters: recombinant enzyme, 60 min at 37° C., pH 4.5
# reported pIC50; entries follow
pIC50 is a log-scale quantity: -log10 of the concentration expressed in molar.

Nc1nc2ccc(Oc3ccccc3)cc2cc1C(CCC(=O)NC1CN2CCC1CC2)C1CCOCC1 (stereo not drawn): 5.92
Nc1nc2ccc(Oc3ccccc3)cc2cc1C(CCC(=O)N(CCN1CCCC1)C1CCCCC1)C1CCCCC1 (stereo not drawn): 6.24

Please turn your attention to the following entry.
Readout pIC50 for CN(C(=O)CCC(c1cc2cc(Oc3ccccc3)ccc2nc1N)C1CCOCC1)C1CCCCC1 (stereo not drawn) , test system UniProt:P56817, was 6.38

----------
# reported % Inhibition (Example 10) @ 0.3 μM; entries follow
- Subject of test: β-secretase (BACE) (Homo sapiens)
- Construct: purchased Panvera
- Protocol notes: In Vitro BACE FS1 % Inhibition Assay (Example 10)
- Format: biochemical
- Measurement parameters: 0.3 μM compound; FS1 substrate; values below about 25% (including negative) within noise
Write it as a number; the unit % goes unstated.

Nc1nc2ccc(Oc3ccccc3)cc2cc1C(CCC(=O)NC12CC3CC(CC(C3)C1)C2)C1CCOCC1 (stereo not drawn) [compound 24]: 56
CN(C(=O)CCCc1cc2cc(Oc3ccccc3)ccc2nc1N)C1CCCCC1 [compound 18]: 29
C=CCC(c1cc2cc(Oc3ccccc3)ccc2nc1N)C1CCCCC1 (stereo not drawn) [compound 503]: 28
Nc1nc2ccc(Oc3ccccc3)cc2cc1C(CCC(=O)N[C@H]1CC[C@@H](C(=O)O)CC1)C1CCCCC1 (stereo partly drawn) [compound 21]: 0.5
COC(=O)[C@H]1CC[C@@H](NC(=O)CCC(c2cc3cc(Oc4ccccc4)ccc3nc2N)C2CCCCC2)CC1 (stereo partly drawn) [compound 19]: −15
Nc1nc2ccc(Oc3ccccc3)cc2cc1CCC(=O)NC12CC3CC(CC(C3)C1)C2 [compound 2]: 45

// % Inhibition (Example 10) @ 0.3 μM lookup, compound = CCN(CC)CCNC(=O)CCc1cc2cc(Oc3ccccc3)ccc2nc1N [compound 10] , result: −11

// % Inhibition (Example 10) @ 0.3 μM lookup, compound = CCCCNC(=O)CCc1cc2cc(Oc3ccccc3)ccc2nc1N [compound 12] , result: −2

// % Inhibition (Example 10) @ 0.3 μM lookup, compound = Cc1ccccc1N1CCN(C(=O)CCc2cc3cc(Oc4ccccc4)ccc3nc2N)CC1 [compound 75] , result: 24
